// data source = patent US20250136677A1

SYSTEM: T1, wildtype feline IL-31 protein (Feline_IL31_wildtype) (feline)
T1 construct: Full length feline IL-31 with C-terminal His tag, secreted from ExpiCHO cells; also called fIL-31
T1 chain: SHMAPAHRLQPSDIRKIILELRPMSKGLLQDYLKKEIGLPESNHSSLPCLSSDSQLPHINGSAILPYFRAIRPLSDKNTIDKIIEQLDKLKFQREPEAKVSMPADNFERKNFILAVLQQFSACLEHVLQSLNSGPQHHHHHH
ASSAY SUMMARY: SPR (Biacore), IL-31 on chip, 1:1 fit
READOUT LABEL: kon (M⁻¹ s⁻¹)
Please reply with the bare figure in M⁻¹ s⁻¹ and do not write the unit itself.

Req: Name the recorded kon for Feline 15H05 VH2 mouse VL (antibody, V domains shown, also called felinized 15H05 VH2 with mouse 15H05 VL (heterochimera)) VH: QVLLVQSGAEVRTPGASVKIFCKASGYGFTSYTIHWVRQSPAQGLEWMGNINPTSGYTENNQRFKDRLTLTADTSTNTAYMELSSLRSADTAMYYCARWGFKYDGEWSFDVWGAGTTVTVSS VL: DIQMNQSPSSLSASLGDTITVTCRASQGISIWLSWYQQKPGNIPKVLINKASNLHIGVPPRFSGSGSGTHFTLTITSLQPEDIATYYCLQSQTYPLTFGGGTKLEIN .
Resp: 34000

Req: For Feline 11E12 1.1 (antibody, V domains shown, Variable chains were subcloned into plasmids with 'the respective feline heavy or kappa constant region'; Made in HEK 293 cells; also called Felinized 11E12 1.1; felinized 11E12) VH: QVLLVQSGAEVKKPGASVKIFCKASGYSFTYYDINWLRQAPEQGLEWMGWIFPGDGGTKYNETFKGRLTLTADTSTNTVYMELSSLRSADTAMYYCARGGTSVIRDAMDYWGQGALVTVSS VL: EIQMTQSPSSLSASPGDRVTITCRASESVDNYGISFMHWYQQKPGKVPKLLIYRASNLESGVPSRFSGSGSGTDFTLTISSLEPEDAATYYCQQSNKDPLTFGQGT , what is its reported kon?
Resp: 20000

Req: # input binder: Feline 15H05 1.1 FW3 (antibody, V domains shown) VH: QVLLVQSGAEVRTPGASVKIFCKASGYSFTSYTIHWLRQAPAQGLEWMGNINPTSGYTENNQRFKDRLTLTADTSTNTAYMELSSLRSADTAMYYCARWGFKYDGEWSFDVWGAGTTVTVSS VL: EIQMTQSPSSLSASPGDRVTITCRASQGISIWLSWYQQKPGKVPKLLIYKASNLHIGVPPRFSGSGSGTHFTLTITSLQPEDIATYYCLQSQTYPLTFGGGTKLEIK ; wanted: its kon
Resp: 214000

Req: Look up kon: Feline 15H05 1.1 FW1_3 (antibody, V domains shown, Printed as 'Feline 15H05 1.1 FW13') VH: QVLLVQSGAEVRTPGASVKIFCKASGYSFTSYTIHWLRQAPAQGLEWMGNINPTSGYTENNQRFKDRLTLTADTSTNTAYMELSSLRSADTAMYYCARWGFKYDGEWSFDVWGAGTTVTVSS VL: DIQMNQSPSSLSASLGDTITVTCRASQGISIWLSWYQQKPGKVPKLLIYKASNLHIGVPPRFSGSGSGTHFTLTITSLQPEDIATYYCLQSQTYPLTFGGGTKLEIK
Resp: 448000

Req: So what does the record say about kon for Feline 11E12 1.1 FW2 (antibody, V domains shown, Feline 11E12 VL1 with the mouse FW2; Feline heavy and kappa constant regions) VH: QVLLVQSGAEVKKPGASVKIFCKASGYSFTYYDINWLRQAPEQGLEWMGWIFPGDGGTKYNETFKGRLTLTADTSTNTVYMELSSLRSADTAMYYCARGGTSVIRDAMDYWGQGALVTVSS VL: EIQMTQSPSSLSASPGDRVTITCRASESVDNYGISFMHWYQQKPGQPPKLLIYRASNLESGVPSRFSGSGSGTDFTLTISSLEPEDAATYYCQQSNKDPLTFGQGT ?
Resp: 852000
